Listed compounds paired with reported logD hydrocarbon water at 0.5 h
Assay: Partition coefficient, logD of the compound in 1,9-decadiene and phosphate buffer at pH 7.4 measured after 30 mins under shaking condition by LC-MS analysis
Type: physicochemical
Provide a numeric answer; units are not to be included.

{"given-smiles": "Cc1ncsc1-c1ccc(CNC(=O)[C@@H]2C[C@H](O)CN2C(=O)[C@@H](NC(=O)COCCOCCOCCOCCOCCOCC(=O)N[C@H](C(=O)N2C[C@@H](O)C[C@H]2C(=O)NCc2ccc(-c3scnc3C)cc2)C(C)(C)C)C(C)(C)C)cc1", "result-number": -3.2}

Return logD hydrocarbon water at 0.5 h (reported value) for this compound: `Cc1ncsc1-c1ccc(CNC(=O)[C@@H]2C[C@@H](O)CN2C(=O)[C@@H](NC(=O)Cc2ccccc2)C(C)(C)C)cc1`
-0.7

Return logD hydrocarbon water at 0.5 h (reported value) for this compound: `Cc1ncsc1-c1ccc(CNC(=O)[C@@H]2C[C@@H](O)CN2C(=O)[C@@H](NC(=O)CCOCCOCCOCCNC(=O)Cc2ccccc2)C(C)(C)C)cc1`
-2.2
